- System: chimeric Caspase-9 polypeptide
- Sequence (P62942 2-108 F37V limits assumed): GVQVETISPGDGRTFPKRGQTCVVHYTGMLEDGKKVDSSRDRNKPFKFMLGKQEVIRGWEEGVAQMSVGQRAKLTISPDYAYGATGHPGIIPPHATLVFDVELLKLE
- method: Caspase-9 mutant classes and basal activity (Table 5)
- Format: cell-based
- protocolConditions: Caspase-9 mutant class; basal (ligand-independent) signaling compared with unmodified chimeric Caspase-9
parameterMeasured: Basal Activity

- F319W (protein) GFGDVGALESLRGNADLAYILSMEPCGHCLIINNVNFCRESGLRTRTGSNIDCEKLRRRFSSLHFMVEVKGDLTAKKMVLALLELARQDHGALDCCVVVILSHGCQASHLQFPGAVYGTDGCPVSVEKIVNIFNGTSCPSLGGKPKLFFIQACGGEQKDHGFEVASTSPEDESPGSNPEPDATPWQEGLRTFDQLDAISSLPTPSDIFVSYSTFPGFVSWRDPKSGSWYVETLDDIFEQWAHSEDLQSLLLRVANAVSVKGIYKQMPGCFNFLRKKLFFKTSASRA: Decreased
- D330N (protein) GFGDVGALESLRGNADLAYILSMEPCGHCLIINNVNFCRESGLRTRTGSNIDCEKLRRRFSSLHFMVEVKGDLTAKKMVLALLELARQDHGALDCCVVVILSHGCQASHLQFPGAVYGTDGCPVSVEKIVNIFNGTSCPSLGGKPKLFFIQACGGEQKDHGFEVASTSPEDESPGSNPEPDATPFQEGLRTFDQLNAISSLPTPSDIFVSYSTFPGFVSWRDPKSGSWYVETLDDIFEQWAHSEDLQSLLLRVANAVSVKGIYKQMPGCFNFLRKKLFFKTSASRA: Decreased
- F326K (protein) GFGDVGALESLRGNADLAYILSMEPCGHCLIINNVNFCRESGLRTRTGSNIDCEKLRRRFSSLHFMVEVKGDLTAKKMVLALLELARQDHGALDCCVVVILSHGCQASHLQFPGAVYGTDGCPVSVEKIVNIFNGTSCPSLGGKPKLFFIQACGGEQKDHGFEVASTSPEDESPGSNPEPDATPFQEGLRTKDQLDAISSLPTPSDIFVSYSTFPGFVSWRDPKSGSWYVETLDDIFEQWAHSEDLQSLLLRVANAVSVKGIYKQMPGCFNFLRKKLFFKTSASRA: Increased
- L329K (protein) GFGDVGALESLRGNADLAYILSMEPCGHCLIINNVNFCRESGLRTRTGSNIDCEKLRRRFSSLHFMVEVKGDLTAKKMVLALLELARQDHGALDCCVVVILSHGCQASHLQFPGAVYGTDGCPVSVEKIVNIFNGTSCPSLGGKPKLFFIQACGGEQKDHGFEVASTSPEDESPGSNPEPDATPFQEGLRTFDQKDAISSLPTPSDIFVSYSTFPGFVSWRDPKSGSWYVETLDDIFEQWAHSEDLQSLLLRVANAVSVKGIYKQMPGCFNFLRKKLFFKTSASRA: Increased
